Test Details: Dissolution comparison of Nα-Nsc-amino acids and Nα-Fmoc-amino acids
Format: physicochemical
Parameters: key: ◯: dissolution; Δ: partial dissolution; X: no dissolution
Condition Details: Fmoc-amino acid, 15% DMF/DCM, stirring 5 minutes
Measurement Kind: Dissolved state, Fmoc, column C

1. NC(=O)CC[C@H](NC(=O)OCC1c2ccccc2-c2ccccc21)C(=O)O [Fmoc-Gln, reference compound] = ◯
2. O=C(O)CNC(=O)OCC1c2ccccc2-c2ccccc21 [Fmoc-Gly, reference compound] = Δ
3. O=C(NC(Cc1c[nH]c2ccccc12)C(=O)O)OCC1c2ccccc2-c2ccccc21 (stereo not drawn) [Fmoc-Trp, reference compound] = ◯
4. CC(C)(C)OC(=O)NCCCCC(NC(=O)OCC1c2ccccc2-c2ccccc21)C(=O)O (stereo not drawn) [Fmoc-Lys, reference compound] = ◯
5. CC(C)[C@H](NC(=O)OCC1c2ccccc2-c2ccccc21)C(=O)O [Fmoc-Val, reference compound] = ◯
6. CC(OC(C)(C)C)C(NC(=O)OCC1c2ccccc2-c2ccccc21)C(=O)O (stereo not drawn) [Fmoc-Thr, reference compound] = ◯
7. CC(C)(C)Oc1ccc(CC(NC(=O)OCC2c3ccccc3-c3ccccc32)C(=O)O)cc1 (stereo not drawn) [Fmoc-Tyr, reference compound] = ◯
8. CC(=O)NCSCC(NC(=O)OCC1c2ccccc2-c2ccccc21)C(=O)O (stereo not drawn) [Fmoc-Cys, reference compound] = Δ
9. O=C(N[C@@H](Cc1ccccc1)C(=O)O)OCC1c2ccccc2-c2ccccc21 [Fmoc-Phe, reference compound] = Δ
